Target: recombinant Human Phosphodiesterase B2 (PDE4B2) (Homo sapiens)
Sequence (Q07343 1-564 isoform Q07343-2): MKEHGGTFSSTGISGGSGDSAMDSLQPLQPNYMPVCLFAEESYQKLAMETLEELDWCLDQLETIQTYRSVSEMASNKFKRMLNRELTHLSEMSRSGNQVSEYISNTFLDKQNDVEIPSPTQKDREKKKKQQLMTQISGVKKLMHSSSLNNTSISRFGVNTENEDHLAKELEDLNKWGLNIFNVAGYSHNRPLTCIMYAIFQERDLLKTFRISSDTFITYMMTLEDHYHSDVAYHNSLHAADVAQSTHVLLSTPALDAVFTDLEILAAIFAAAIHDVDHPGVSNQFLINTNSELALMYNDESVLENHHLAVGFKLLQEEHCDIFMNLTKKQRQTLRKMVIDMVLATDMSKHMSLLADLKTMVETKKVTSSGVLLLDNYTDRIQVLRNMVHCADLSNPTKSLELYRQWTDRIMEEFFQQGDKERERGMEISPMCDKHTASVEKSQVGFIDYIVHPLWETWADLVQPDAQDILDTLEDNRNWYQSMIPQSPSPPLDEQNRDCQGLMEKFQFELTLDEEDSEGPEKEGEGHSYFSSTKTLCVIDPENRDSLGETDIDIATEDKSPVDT
Assay: Human Phosphodiesterase B2 Alpha Screen Assay
Assay type: biochemical
Details: Alpha Screen cAMP assay
Observed Property: IC50 (nM)

Worked examples follow.
O=C(N[C@H]1CC[C@@H](n2c(=O)c3cc(F)cnc3n(C3CCSC3)c2=O)CC1)c1cn2ccccc2n1 (relative stereo)
0.97
O=C(N[C@H]1CC[C@@H](n2c(=O)c3cc(F)cnc3n(C3CCSCC3)c2=O)CC1)c1ccc(O)cc1
1.69
COc1ccc(C(=O)N[C@H]2CC[C@@H](n3c(=O)c4cc(F)cnc4n(C4CCSCC4)c3=O)CC2)cc1O
0.874

[P] O=C(N[C@H]1CC[C@@H](n2c(=O)c3cc(F)cnc3n(C3CCSC3)c2=O)CC1)c1ccccc1O (relative stereo)
[Q] COc1cc(C(=O)N[C@H]2CC[C@@H](n3c(=O)c4cc(F)cnc4n(C4CCSCC4)c3=O)CC2)ccc1O
[R] O=C(CNC(=O)c1ccccc1O)N[C@H]1CC[C@@H](n2c(=O)c3cc(F)cnc3n(C3CCSCC3)c2=O)CC1
[S] O=C(N[C@H]1CC[C@@H](n2c(=O)c3cc(F)cnc3n(C3CCSCC3)c2=O)CC1)c1ccco1
Request: Put the entries in order of IC50, starting with the largest number. A ranking is expressed here by listing the labels in the requested order.
Response: P, S, Q, R

[1] CC(C)CC(=O)N[C@H]1CC[C@@H](n2c(=O)c3cc(F)cnc3n(C3CCSCC3)c2=O)CC1
[2] O=C(Cc1ccc(O)cc1)N[C@H]1CC[C@@H](n2c(=O)c3cc(F)cnc3n(C3CCSCC3)c2=O)CC1
Request: Returns the identifier with the smallest measured IC50 among 1 and 2 . Answer by quoting the chosen item's label.
Response: 2
(2: 1.75 nM, 1: 4.72 nM)

Recorded values, source patent US20090233907A1.
